- target entity: hemagglutinin (HA) of influenza A/New York/107/03 (PR8) (influenza A virus A/New York/107/03 (PR8))
- assay: cell-based or functional assay
measurement label: VNA IC50 (nM)
Give bare numbers, in nM.

# binder, VNA IC50, nM
records = [
    ("SD3024 (VHH) VHH: EVQLLESGGGLVQPGGSLRLSCAASGRTYAMSWFRQAPGKEREFVSHINALGTRTYYADSVKGRFTISRDNSKNTLYLQMNSLRAEDTAVYYCTAQGQWRAAPVAVAAEYEFWGQGTQVTVSS", 20),
    ("SD3095 (VHH) VHH: EVQLLESGGGLVQPGGSLRLSCAASGRTYAMGWFRQAPGKEREFVAHINALGTRTYYADSVKGRFTISRDNSKNTLYLQMNSLRPEDTAVYYCTAQGQWRAAPVAVAAEYEFWGQGTLVTVSS", 6),
]

Just so you know, measured VNA IC50 for SD3048 (VHH) VHH: EVQLVESGGGLVQAGGSLRLSCAASGRTLSIYSMSWFRQAPGKEREFVSTIGWNSGRTYYADSVKGRFTISRDNARNTLYLQMNSLRAEDTAVYYCAAAKGPLRLSSQADYWGQGTQVTVSS came out at 858
